Reference source: patent US12653814B2

target entity: human TRPV1 (hTRPV1) (Homo sapiens, UniProt Q8NER1)
Sequence (Q8NER1 whole entry): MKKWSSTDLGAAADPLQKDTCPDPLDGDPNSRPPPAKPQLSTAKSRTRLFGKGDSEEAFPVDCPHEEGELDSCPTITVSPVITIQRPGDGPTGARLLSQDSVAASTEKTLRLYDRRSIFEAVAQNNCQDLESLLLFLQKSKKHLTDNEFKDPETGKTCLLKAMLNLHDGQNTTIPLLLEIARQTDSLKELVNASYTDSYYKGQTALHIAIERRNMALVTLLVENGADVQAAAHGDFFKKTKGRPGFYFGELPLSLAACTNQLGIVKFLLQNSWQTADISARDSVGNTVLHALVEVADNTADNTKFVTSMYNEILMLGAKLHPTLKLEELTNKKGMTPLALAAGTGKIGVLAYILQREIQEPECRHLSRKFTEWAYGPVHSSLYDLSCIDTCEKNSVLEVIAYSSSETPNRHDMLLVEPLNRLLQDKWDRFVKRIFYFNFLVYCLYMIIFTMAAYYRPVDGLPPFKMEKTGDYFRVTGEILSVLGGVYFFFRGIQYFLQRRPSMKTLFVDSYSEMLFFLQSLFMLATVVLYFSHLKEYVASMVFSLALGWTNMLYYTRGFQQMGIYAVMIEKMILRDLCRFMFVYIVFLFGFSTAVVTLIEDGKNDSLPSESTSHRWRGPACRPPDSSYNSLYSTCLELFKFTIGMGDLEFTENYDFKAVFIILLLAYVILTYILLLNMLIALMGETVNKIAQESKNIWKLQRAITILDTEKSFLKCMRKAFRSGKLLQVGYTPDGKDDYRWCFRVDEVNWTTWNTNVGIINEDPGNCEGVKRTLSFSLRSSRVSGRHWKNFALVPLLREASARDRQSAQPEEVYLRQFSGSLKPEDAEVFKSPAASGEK
experimental details: Ca2+ influx assay, antagonism against capsaicin in hTRPV1-HEK recombinant cells
test context: capsaicin 10 nM as activator, Fluo4-NW fluorescence, read-out: hTRPV1 IC50 [cap]
measured metric: IC50 (nM)

| smiles text | IC50 [nM] |
| --- | --- |
| O=C(/C=C/c1ccc(C(F)(F)F)nc1OC1CCCC1)Nc1cccc2[nH]c(=O)[nH]c12 | 31.5 |

[P] CC(C)CSc1nc(C(F)(F)F)ccc1/C=C/C(=O)Nc1cccc2[nH]c(=O)[nH]c12
[Q] CC(C)(C)c1cc(/C=C/C(=O)Nc2cccc3[nH]c(=O)[nH]c23)n(-c2cccc(Cl)c2)n1
[R] O=C(/C=C/c1ccc(C(F)(F)F)nc1-c1cccc(Cl)c1)Nc1cccc2[nH]c(=O)[nH]c12
### Prompt Which order do these items take when sorted by rising IC50? List them. I'd appreciate it if you listed the labels in the requested order.
### Response R, P, Q
(R: 26 nM, P: 40.9 nM, Q: 79.8 nM)

----------
target entity: human TRPV1 (hTRPV1) (Homo sapiens, UniProt Q8NER1)
Construct: host or cells: HEK (PrecisION hTRPV1-HEK recombinant cell line)
experimental details: Evaluation of human pH inhibitory activity in hTRPV1-HEK recombinant cells
Type: cell-based
test context: inhibition of activation at final pH 6.0, test substance 3 μM
measured metric: hTRPV1 pH (%, 3 μM) (%)

Consider the reported hTRPV1 pH (%, 3 μM) for these molecules:
| molecule | hTRPV1 pH (%, 3 μM) / % |
| --- | --- |
| CC(F)(F)c1ccc(/C=C/C(=O)Nc2cccc3[nH]c(=O)[nH]c23)c(OCC2CC2)n1 [Example 22] | 90.86 |
| CC1(c2ccc(/C=C/C(=O)Nc3cccc4[nH]c(=O)[nH]c34)c(OCC3CC3)n2)CC1 [Example 20] | 86.79 |
| CC1CCN(c2nc(C(F)(F)F)ccc2/C=C/C(=O)Nc2cccc3[nH]c(=O)[nH]c23)CC1 [Example 1] | 78.62 |
| O=C(/C=C/c1ccc(C(F)(F)F)nc1-c1ccc(F)cc1)Nc1cccc2[nH]c(=O)[nH]c12 [Example 34] | 37.85 |
| O=C(/C=C/c1sc(C(F)(F)F)nc1-c1cccc(Cl)c1)Nc1cccc2[nH]c(=O)[nH]c12 [Example 54] | 63.44 |

[P] CC(C)(C)c1ccc(/C=C/C(=O)Nc2cccc3[nH]c(=O)[nH]c23)c(OCC2CC2)c1 [Example 45]
[Q] O=C(/C=C/c1ccc(C(F)(F)F)cc1OCC1CC1)Nc1cccc2[nH]c(=O)[nH]c12 [Example 43]
### Prompt Select the item with the higher value of hTRPV1 pH (%, 3 μM) from the options P and Q listed. Refer to your chosen entry by its label in the reply.
### Response Q

----------
target entity: human TRPV1 (hTRPV1) (Homo sapiens)
experimental details: Ca2+ influx assay, antagonism against capsaicin in hTRPV1-HEK recombinant cells
test context: capsaicin 10 nM as activator, Fluo4-NW fluorescence, read-out: hTRPV1 IC50 [cap]
measured metric: IC50 (nM)

| smiles text | readout unit | IC50 |
| --- | --- | --- |
| O=C(/C=C/c1ccc(C(F)(F)F)nc1OCC1CCC1)Nc1cccc2[nH]c(=O)[nH]c12 | nM | 34.1 |

[1] CC(C)(C)CCc1nc(C(F)(F)F)ccc1/C=C/C(=O)Nc1cccc2[nH]c(=O)[nH]c12
[2] CC(C)COc1nc(C(F)(F)F)ccc1/C=C/C(=O)Nc1cccc2[nH]c(=O)[nH]c12
[3] CC(C)(C)C#Cc1nc(C(F)(F)F)ccc1/C=C/C(=O)Nc1cccc2[nH]c(=O)[nH]c12
### Prompt List these items ordered by IC50, big to small. I'd appreciate it if you listed the labels in the requested order.
### Response 1, 3, 2

----------
target entity: human TRPV1 (hTRPV1) (Homo sapiens, UniProt Q8NER1)
experimental details: Ca2+ influx assay, antagonism against capsaicin in hTRPV1-HEK recombinant cells
test context: capsaicin 10 nM as activator, Fluo4-NW fluorescence, read-out: hTRPV1 IC50 [cap]
measured metric: IC50 (nM)

| smiles text | target entity | IC50, nM |
| --- | --- | --- |
| CC(F)(F)c1ccc(/C=C/C(=O)Nc2cccc3[nH]c(=O)[nH]c23)c(OCC2CC2)n1 | human TRPV1 (hTRPV1) (Homo sapiens, UniProt Q8NER1) | 31.2 |

[I] O=C(/C=C/c1ccc(C2CC2)nc1OCC1CC1)Nc1cccc2[nH]c(=O)[nH]c12
[II] CCN(CC)c1nc(C(F)(F)F)ccc1/C=C/C(=O)Nc1cccc2[nH]c(=O)[nH]c12
### Prompt Please indicate which item has the smaller measured IC50: I versus II Refer to your chosen entry by its label in the reply.
### Response II

----------
target entity: human TRPV1 (hTRPV1) (Homo sapiens, UniProt Q8NER1)
Construct: host or cells: HEK (PrecisION hTRPV1-HEK recombinant cell line)
experimental details: Evaluation of human pH inhibitory activity in hTRPV1-HEK recombinant cells
Type: cell-based
test context: inhibition of activation at final pH 6.0, test substance 3 μM
measured metric: hTRPV1 pH (%, 3 μM) (%)

[1] O=C(/C=C/c1cc(C(F)(F)F)nn1-c1ccc(F)c(Cl)c1)Nc1cccc2[nH]c(=O)[nH]c12
[2] O=C(/C=C/c1ccc(C(F)(F)F)nc1-c1ccc(F)c(Cl)c1)Nc1cccc2[nH]c(=O)[nH]c12
### Prompt Select the item with the higher value of hTRPV1 pH (%, 3 μM) from the options 1 and 2 listed. Refer to your chosen entry by its label in the reply.
### Response 2
(2: 69.89%, 1: 21.37%)

[I] O=C(Nc1cccc2[nH]c(=O)[nH]c12)C1CC1c1cc(C(F)(F)F)nn1-c1cccc(Cl)c1 (stereo not shown)
[II] CC1CC1COc1nc(C(F)(F)F)ccc1/C=C/C(=O)Nc1cccc2[nH]c(=O)[nH]c12 (stereo not shown)
### Prompt Select the item with the higher value of hTRPV1 pH (%, 3 μM) from the options I and II listed. Refer to your chosen entry by its label in the reply.
### Response II
(II: 97.34%, I: 0.53%)

----------
target entity: human TRPV1 (hTRPV1) (Homo sapiens, UniProt Q8NER1)
experimental details: Ca2+ influx assay, antagonism against capsaicin in hTRPV1-HEK recombinant cells
test context: capsaicin 10 nM as activator, Fluo4-NW fluorescence, read-out: hTRPV1 IC50 [cap]
measured metric: IC50 (nM)

Consider the reported IC50 for these molecules:
| smiles text | IC50, nM |
| --- | --- |
| CC(C)c1cccc(-c2nc(C(F)(F)F)ccc2/C=C/C(=O)Nc2cccc3[nH]c(=O)[nH]c23)c1 | 23.7 |
| CC(C)c1ccc(/C=C/C(=O)Nc2cccc3[nH]c(=O)[nH]c23)c(OCC2CC2)n1 | 410 |
| CC1(c2nc(-c3cccc(Cl)c3)c(/C=C/C(=O)Nc3cccc4[nH]c(=O)[nH]c34)s2)CC1 | 39.8 |

[I] O=C(/C=C/c1ccc(C(F)(F)F)nc1N1CCCC1)Nc1cccc2[nH]c(=O)[nH]c12
[II] O=C(/C=C/c1ccc(C(F)(F)Cl)nc1OCC1CC1)Nc1cccc2[nH]c(=O)[nH]c12
[III] CC1CCN(c2nc(C(F)(F)F)ccc2/C=C/C(=O)Nc2cccc3[nH]c(=O)[nH]c23)CC1
### Prompt Which order do these items take when sorted by rising IC50? List them. I'd appreciate it if you listed the labels in the requested order.
### Response I, III, II

----------
The following molecules are listed with their measured IC50 values.
target entity: human TRPV1 (hTRPV1) (Homo sapiens)
experimental details: Ca2+ influx assay, antagonism against capsaicin in hTRPV1-HEK recombinant cells
test context: capsaicin 10 nM as activator, Fluo4-NW fluorescence, read-out: hTRPV1 IC50 [cap]

Consider the reported IC50 for these molecules:
| molecule | IC50 |
| --- | --- |
| CC(C)c1nc(-c2cccc(Cl)c2)c(/C=C/C(=O)Nc2cccc3[nH]c(=O)[nH]c23)s1 [Example 55] | > 160 nM |
| CC(C)c1cc(C2CC2C(=O)Nc2cccc3[nH]c(=O)[nH]c23)n(-c2cccc(Cl)c2)n1 (stereo not shown) [Example 65] | > 160 nM |

### Prompt Kindly indicate its recorded IC50. Item: O=C(/C=C/c1ccc(C(F)(F)F)nc1SCC1CC1)Nc1cccc2[nH]c(=O)[nH]c12 [Example 28]
### Response > 100 nM

### Prompt Kindly indicate its recorded IC50. Item: O=C(Nc1cccc2[nH]c(=O)[nH]c12)C1CC1c1cc(C2CC2)nn1-c1cccc(Cl)c1 (stereo not shown) [Example 66]
### Response > 160 nM
